The reported measurements were obtained from paper PMC6385020.

Listed here are compounds together with their documented IC50.
# Tested on: A2780 ovarian cancer cell line
# Assay Overview: Cell growth (proliferation), 96 h treatment
# Format: cell-based, human
# Condition Set: A2780, 96 h treatment
Write the number in nM without appending the unit.

The following compounds have reported results that may help.
> print(dat)
                                   compound                          system  units.label   val
1  [Cl-].[Cl][Pt+].c1ccc(-c2cccc(-c3ccccn3)n2)nc1 [Pt-tpy]  A2780 ovarian cancer cell line           nM  3000
2  F[P-](F)(F)(F)(F)F.[Pt+][C]#Cc1ccccc1.c1ccc(-c2cccc(-c3ccccn3)n2)nc1 [Pt(PA)-tpy]  A2780 ovarian cancer cell line           nM    80

### Prompt Endpoint output: IC50 of CN(C)c1ccc(/C=C/c2cc(-c3ccccn3)nc(-c3ccccn3)n2)cc1.[Cl-].[Cl][Pt+] [Pt-vpym] . Value?
### Response 700

----------
# Test system: 21CTA human telomeric sequence variant G4
# Type: binding
# Condition Set: PhenDV 1.5 eq, K+100 buffer
Label TRUE when % of PhenDV displacement at 1 µM of ligand is strictly below 70%; at or above that, label FALSE.

Please review the entries below; each comes with its answer.
> print(dat)
                                   compound                                    system  qualitative.label
1  [Cl-].[Cl][Pt+].c1ccc(-c2cccc(-c3ccccn3)n2)nc1  21CTA human telomeric sequence variant G4               TRUE
2  CN(C)CCCNCc1ccc(-c2cc(-c3ccccn3)nc(-c3ccccn3)c2)cc1.[Cl-].[Cl][Pt+]  21CTA human telomeric sequence variant G4              FALSE

### Prompt Quick check: does C[n+]1cc(NC(=O)c2ccc3ccc4ccc(C(=O)Nc5cc6ccccc6[n+](C)c5)nc4c3n2)cc2ccccc21 [PhenDC3, reference compound] have % of PhenDV displacement at 1 µM of ligand under 70%?
### Response FALSE

### Prompt Quick check: does F[P-](F)(F)(F)(F)F.[Pt+][C]#Cc1ccccc1.c1ccc(-c2cccc(-c3ccccn3)n2)nc1 have % of PhenDV displacement at 1 µM of ligand under 70%?
### Response TRUE

### Prompt Quick check: does Cc1ccc(-c2cc(-c3ccccn3)nc(-c3ccccn3)c2)cc1.[Cl-].[Cl][Pt+] have % of PhenDV displacement at 1 µM of ligand under 70%?
### Response FALSE

----------
# Tested on: CEB25-WT (DNA, G4) AAGGGTGGGTGTAAGTGTGGGTGGGT
# Assay Overview: G4-FID, thiazole orange displacement
# Condition Set: 100 mM KCl; 10 mM lithium cacodylate pH 7.3, 1% DMSO; thiazole orange displaced; 1 µM compound, 0.25 µM DNA
Measured Metric: % TO displacement

> print(dat)
                                   compound    val
1  [Cl-].[Pt+2].c1cc(-c2ccc3ccccc3n2)nc(-c2ccc3ccccc3n2)c1  > 80%

### Prompt Endpoint output: % TO displacement of [Cl-].[Cl][Pt+].c1ccc(-c2cc(-c3ccc(OCCN4CCCC4)cc3)nc(-c3ccccn3)n2)nc1 [Pt-cpym] . Value?
### Response < 60%

### Prompt Endpoint output: % TO displacement of CN(C)CCCNCc1ccc(-c2cc(-c3ccccn3)nc(-c3ccccn3)c2)cc1.[Cl-].[Cl][Pt+] [Pt-ctpy] . Value?
### Response > 80%

### Prompt Endpoint output: % TO displacement of Cc1ccc(-c2cc(-c3ccccn3)nc(-c3ccccn3)c2)cc1.[Cl-].[Cl][Pt+] [Pt-ttpy] . Value?
### Response > 80%

----------
# Tested on: G4-DNA structures (F-21-T, F-myc-T, F-21CTA-T, F-CEB25-WT-T)
# Assay Overview: FRET-melting assay (ligand-induced stabilization)
# Format: binding, human
# Condition Set: 1 µM ligand, 0.2 µM DNA, all G4-DNA structures, K+1 or K+10 buffer
# Experimental: For the G4-FID assay, the oligonucleotides were dissolved in K^+100 buffer (10 mM lithium cacodylate buffer pH 7.3, 100 mM KCl, 1% DMSO). Oligonucleotide concentrations were determined on the basis of their absorbance at 260 nm. […] The stabilization of the compounds with a quadruplex-structure was monitored via FRET-melting assay performed in 96-well plates on a real-time PCR apparatus 7900HT Fast Real-Time PCR System as follows: 5 min at 25 °C and then an increase of 0.5 °C every minute until 95 °C. […]
Measured Metric: ∆Tm (ligand-induced stabilization, FRET-melting)

The following molecules have reported results that may help.
> print(dat)
                               given.smiles      val
1  CN(C)CCCNCc1ccc(-c2cc(-c3ccccn3)nc(-c3ccccn3)c2)cc1.[Cl-].[Cl][Pt+]  > 10 °C
2  Cc1ccc(-c2cc(-c3ccccn3)nc(-c3ccccn3)c2)cc1.[Cl-].[Cl][Pt+]  > 10 °C
3  CN(C)c1ccc(/C=C/c2cc(-c3ccccn3)nc(-c3ccccn3)n2)cc1.[Cl-].[Cl][Pt+]  < 10 °C
4  [Cl-].[Cl][Pt+].c1ccc(-c2cc(-c3ccc(OCCN4CCCC4)cc3)nc(-c3ccccn3)n2)nc1  < 10 °C

Now consider a different molecule.
### Prompt Give G4-DNA structures (F-21-T, F-myc-T, F-21CTA-T, F-CEB25-WT-T) ∆Tm (ligand-induced stabilization, FRET-melting) for [Cl-].[Cl][Pt+].c1ccc(-c2cccc(-c3ccccn3)n2)nc1
### Response < 10 °C

----------
# Test system: 22AG human telomeric sequence G4
# Assay Overview: PhenDV G4-FID assay
# Assay type: binding
# Condition Set: PhenDV 1.5 eq, K+100 buffer
Listed here are compounds together with their documented % of PhenDV displacement at 1 µM of ligand.
Write the number in % without appending the unit.

> print(dat)
                                   compound  units.label  val
1  Cc1ccc(-c2cc(-c3ccccn3)nc(-c3ccccn3)c2)cc1.[Cl-].[Cl][Pt+] [Pt-ttpy]            %   63

### Prompt Give 22AG human telomeric sequence G4 % of PhenDV displacement at 1 µM of ligand for [Cl-].[Cl][Pt+].c1ccc(-c2cc(-c3ccc(OCCN4CCCC4)cc3)nc(-c3ccccn3)n2)nc1 [Pt-cpym]
### Response 43

### Prompt Give 22AG human telomeric sequence G4 % of PhenDV displacement at 1 µM of ligand for [Cl-].[Cl][Pt+].c1ccc(-c2cccc(-c3ccccn3)n2)nc1 [Pt-tpy]
### Response 24

### Prompt Give 22AG human telomeric sequence G4 % of PhenDV displacement at 1 µM of ligand for CN(C)CCCNCc1ccc(-c2cc(-c3ccccn3)nc(-c3ccccn3)c2)cc1.[Cl-].[Cl][Pt+] [Pt-ctpy]
### Response 84

### Prompt Give 22AG human telomeric sequence G4 % of PhenDV displacement at 1 µM of ligand for C[n+]1cc(NC(=O)c2ccc3ccc4ccc(C(=O)Nc5cc6ccccc6[n+](C)c5)nc4c3n2)cc2ccccc21 [PhenDC3, reference compound]
### Response 92

### Prompt Give 22AG human telomeric sequence G4 % of PhenDV displacement at 1 µM of ligand for F[P-](F)(F)(F)(F)F.[Pt+][C]#Cc1ccccc1.c1ccc(-c2cccc(-c3ccccn3)n2)nc1 [Pt(PA)-tpy]
### Response 20

----------
# Tested on: 21CTA human telomeric sequence variant G4
# Format: binding
# Condition Set: TO-PRO-3 2 eq, K+100 buffer
Measured Metric: % of TOPRO3 displacement at 1 µM of ligand (%)
Write the number in % without appending the unit.

The following compounds have reported results that may help.
> print(dat)
                                   compound  val
1  C[n+]1cc(NC(=O)c2ccc3ccc4ccc(C(=O)Nc5cc6ccccc6[n+](C)c5)nc4c3n2)cc2ccccc21 [PhenDC3, reference compound]   83
2  [Cl-].[Cl][Pt+].c1ccc(-c2cc(-c3ccc(OCCN4CCCC4)cc3)nc(-c3ccccn3)n2)nc1   25

Now consider a different compound.
### Prompt Endpoint output: % of TOPRO3 displacement at 1 µM of ligand of Cc1ccc(-c2cc(-c3ccccn3)nc(-c3ccccn3)c2)cc1.[Cl-].[Cl][Pt+] . Value?
### Response 62

----------
Listed here are compounds together with their documented % TO displacement.
# Tested on: 22AG (DNA, G4) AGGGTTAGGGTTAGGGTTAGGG
# Assay Overview: G4-FID, thiazole orange displacement
# Condition Set: 100 mM KCl; 10 mM lithium cacodylate pH 7.3, 1% DMSO; thiazole orange displaced; 1 µM compound, 0.25 µM DNA

> print(dat)
                                   compound    measured.metric    val
1  [Cl-].[Cl][Pt+].c1ccc(-c2cc(-c3ccc(OCCN4CCCC4)cc3)nc(-c3ccccn3)n2)nc1 [Pt-cpym]  % TO displacement  < 60%
2  CN(C)CCCNCc1ccc(-c2cc(-c3ccccn3)nc(-c3ccccn3)c2)cc1.[Cl-].[Cl][Pt+] [Pt-ctpy]  % TO displacement  > 80%
3  [Cl-].[Pt+2].c1cc(-c2ccc3ccccc3n2)nc(-c2ccc3ccccc3n2)c1  % TO displacement  > 80%

### Prompt Endpoint output: % TO displacement of Cc1ccc(-c2cc(-c3ccccn3)nc(-c3ccccn3)c2)cc1.[Cl-].[Cl][Pt+] [Pt-ttpy] . Value?
### Response > 80%
